Exercise: for every item that follows, state its recorded IC50.
Molecular target: LFA-1 binding to ICAM-1 (JY cells) (Homo sapiens, UniProt P05362)
Construct: endogenous in cells; host or cells: JY cells
Sequence (P05362 28-532): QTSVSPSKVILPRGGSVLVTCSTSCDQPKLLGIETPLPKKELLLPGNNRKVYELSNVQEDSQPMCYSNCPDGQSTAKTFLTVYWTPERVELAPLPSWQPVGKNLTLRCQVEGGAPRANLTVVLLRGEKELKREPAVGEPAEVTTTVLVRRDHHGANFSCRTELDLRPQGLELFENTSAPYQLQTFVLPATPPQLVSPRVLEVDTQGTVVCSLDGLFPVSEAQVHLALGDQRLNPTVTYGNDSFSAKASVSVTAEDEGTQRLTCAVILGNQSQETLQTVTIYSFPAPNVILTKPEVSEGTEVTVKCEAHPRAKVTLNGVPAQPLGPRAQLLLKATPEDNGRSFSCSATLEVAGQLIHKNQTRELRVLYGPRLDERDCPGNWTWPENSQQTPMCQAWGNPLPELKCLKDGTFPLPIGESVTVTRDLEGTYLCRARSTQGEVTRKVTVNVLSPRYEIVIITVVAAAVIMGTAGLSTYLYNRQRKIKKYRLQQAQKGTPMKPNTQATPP
Experiment: LFA-1:ICAM-1 dependent JY cell aggregation assay (2 hours)
Format: cell-based
Bridge positions count the residues as written; N and C are the ends. Peptide text beside a SMILES is read from it.

# IC50 of CC[C@H](C)[C@@H]1NC(=O)[C@H](CO)NC(=O)[C@H](CCCNC(=N)N)NC(=O)[C@H](CCSC)NC(=O)[C@H](CCCNC(=N)N)NC(=O)[C@H](C)NC(=O)[C@H](CC(C)C)NC(=O)[C@@H](N)CSSC[C@@H](C(=O)O)NC1=O [IP01-A3, CLARMRSIC] (H-CLARMRSIC-OH; disulfide 1-9; N-terminus and C-terminus assumed) = > 1 mM

Recorded result, CC[C@H](C)[C@@H]1NC(=O)[C@H](CO)NC(=O)[C@H](CCCNC(=N)N)NC(=O)[C@H](C)NC(=O)[C@H](CCCNC(=N)N)NC(=O)[C@H](CC(C)C)NC(=O)[C@H](CC(C)C)NC(=O)[C@@H](N)CSSC[C@@H](C(=O)O)NC1=O [IP01-A5, CLLRARSIC] (H-CLLRARSIC-OH; disulfide 1-9; N-terminus and C-terminus assumed) , IC50: > 1 mM

Looking up CC[C@H](C)[C@@H]1NC(=O)[C@H](CO)NC(=O)[C@H](C)NC(=O)[C@H](CCSC)NC(=O)[C@H](CCCNC(=N)N)NC(=O)[C@H](CC(C)C)NC(=O)[C@H](CC(C)C)NC(=O)[C@@H](N)CSSC[C@@H](C(=O)O)NC1=O [IP01-A6, CLLRMASIC] (H-CLLRMASIC-OH; disulfide 1-9; N-terminus and C-terminus assumed) , I found its IC50 recorded as > 1 mM

response.value for CC[C@H](C)[C@@H]1NC(=O)[C@H](CO)NC(=O)[C@H](CCCNC(=N)N)NC(=O)[C@H](CCSC)NC(=O)[C@H](CCCNC(=N)N)NC(=O)[C@H](CC(C)C)NC(=O)[C@H](C)NC(=O)[C@@H](N)CSSC[C@@H](C(=O)O)NC1=O [IP01-A2, CALRMRSIC] (H-CALRMRSIC-OH; disulfide 1-9; N-terminus and C-terminus assumed) (field: IC50) = > 1 mM

Attribution: patent US20050048579A1
